tested on: HLA-B*08:01
experiment description: IEDB peptide-MHC binding, purified MHC/competitive/radioactivity; filed as Kd, often an IC50 or EC50 that approximates it; bounds were set here for any values at or beyond the usual limits of such assays
condition label: source organism: Dengue virus 3 China/80-2/1980
readout: Kd

Q: Given CLMMMLPATL , state its recorded Kd.
Result: 60.5 nM

====

tested on: HLA-B*27:05
experiment description: IEDB peptide-MHC binding, purified MHC/direct/fluorescence; filed as Kd, often an IC50 or EC50 that approximates it; bounds were set here for any values at or beyond the usual limits of such assays
condition label: source organism: Corynebacterium efficiens
readout: Kd

Q: # value lookup — system HLA-B*27:05, readout Kd, item VQLQEYDTY
Result: ≥ 20 µM

====

tested on: HLA-A*01:01
experiment description: IEDB peptide-MHC binding, purified MHC/competitive/radioactivity; filed as Kd, often an IC50 or EC50 that approximates it; bounds were set here for any values at or beyond the usual limits of such assays
condition label: source organism: Lymphocytic choriomeningitis virus (strain Armstrong)
readout: Kd (nM)
Field format: number, assumed nM, no unit text.

Q: Look up Kd for this sequence: NANAYSGKY
Result: 515

====

tested on: HLA-A*02:01
experiment description: IEDB peptide-MHC binding, purified MHC/direct/fluorescence; filed as Kd, often an IC50 or EC50 that approximates it; bounds were set here for any values at or beyond the usual limits of such assays
condition label: source organism: Rickettsia bellii RML369-C
readout: Kd

Q: Field request: Kd | item: NPLEIYQEI
Result: ≥ 20 µM

====

tested on: HLA-B*53:01
experiment description: IEDB peptide-MHC binding, purified MHC/competitive/radioactivity; filed as Kd, often an IC50 or EC50 that approximates it; bounds were set here for any values at or beyond the usual limits of such assays
condition label: source organism: SARS coronavirus Tor2
readout: pKd
Schema: pKd number; meaning minus log10 of the concentration expressed in molar units.

Sample records with pKd:
residue sequence: KPTESACSSL
tested on: HLA-B*53:01
pKd: 5.08

residue sequence: APVSAMVRM
tested on: HLA-B*53:01
pKd: 6.13

residue sequence: LPYPDPSRIL
tested on: HLA-B*53:01
pKd: 5.08

Proceed to the following item.
Q: Consider the sequence shown here: FPLKLRGTAV What is its recorded pKd?
Result: 5.35

====

tested on: HLA-B*44:02
experiment description: IEDB peptide-MHC binding, purified MHC/direct/fluorescence; filed as Kd, often an IC50 or EC50 that approximates it; bounds were set here for any values at or beyond the usual limits of such assays
condition label: source organism: Giardia lamblia ATCC 50803
Kd: recorded values

Previously resolved entries follow.
residue sequence: LERIKANIF
tested on: HLA-B*44:02
Kd: ≥ 20 µM
//
residue sequence: IPRQWHPFA
tested on: HLA-B*44:02
Kd: ≥ 20 µM

Now for the sequence whose Kd we want.
Q: Field: Kd (HLA-B*44:02). Entry: HSSVAGGLW
Result: ≥ 20 µM

====

tested on: HLA-B*40:01
experiment description: IEDB peptide-MHC binding, purified MHC/competitive/radioactivity; filed as Kd, often an IC50 or EC50 that approximates it; bounds were set here for any values at or beyond the usual limits of such assays
condition label: source organism: Dengue virus 1 Brazil/97-11/1997
readout: Kd (nM)
Give your result in nM as a bare value.

Q: Fill blank: measured Kd of the sequence YENLKYSVIV is ____.
Result: 70.6

====

tested on: HLA-A*69:01
experiment description: IEDB peptide-MHC binding, purified MHC/direct/fluorescence; filed as Kd, often an IC50 or EC50 that approximates it; bounds were set here for any values at or beyond the usual limits of such assays
condition label: source organism: Vibrio parahaemolyticus
readout: Kd (nM)
Field format: number, assumed nM, no unit text.

Q: // Kd lookup, key: EVDEGSDMM
Result: 141

====

tested on: HLA-B*27:03
experiment description: IEDB peptide-MHC binding, purified MHC/competitive/fluorescence; filed as Kd, often an IC50 or EC50 that approximates it; bounds were set here for any values at or beyond the usual limits of such assays
condition label: source organism: Staphylococcus aureus subsp. aureus N315
readout: Kd

Q: Can you look up the measured Kd of VILNYIPVL for me?
Result: ≥ 20 µM

====

tested on: HLA-B*15:42
experiment description: IEDB peptide-MHC binding, purified MHC/competitive/fluorescence; filed as Kd, often an IC50 or EC50 that approximates it; bounds were set here for any values at or beyond the usual limits of such assays
condition label: source organism: West Nile virus
readout: Kd

Q: Consider the sequence REWFMDLNL and give its measured Kd.
Result: ≥ 5 µM

====

tested on: HLA-A*68:01
experiment description: IEDB peptide-MHC binding, purified MHC/competitive/radioactivity; filed as Kd, often an IC50 or EC50 that approximates it; bounds were set here for any values at or beyond the usual limits of such assays
condition label: source organism: Lymphocytic choriomeningitis virus (strain Armstrong)
readout: Kd (µM)
Report the value in µM with no unit label.

Q: # value lookup — system HLA-A*68:01, readout Kd, item VTMFEALPH
Result: 18.7

====

tested on: HLA-B*83:01
experiment description: IEDB peptide-MHC binding, purified MHC/competitive/fluorescence; filed as Kd, often an IC50 or EC50 that approximates it; bounds were set here for any values at or beyond the usual limits of such assays
condition label: source organism: Giardia lamblia ATCC 50803
pKd: −log10 of the molar value.
readout: pKd

residue sequence: MTDVDLNYY
tested on: HLA-B*83:01
pKd: ≤ 5.30

Now let's try a different one.
Q: Item under review: YMRERFEPM . Reported pKd?
Result: ≤ 5.30

====

tested on: HLA-B*18:01
experiment description: IEDB peptide-MHC binding, purified MHC/direct/fluorescence; filed as Kd, often an IC50 or EC50 that approximates it; bounds were set here for any values at or beyond the usual limits of such assays
condition label: source organism: Rickettsia bellii RML369-C
pKd: −log10 of the molar value.
readout: pKd

Q: # input sequence: NPLEIYQEI ; wanted: its pKd
Result: ≤ 4.70

====

tested on: HLA-A*29:02
experiment description: IEDB peptide-MHC binding, purified MHC/direct/fluorescence; filed as Kd, often an IC50 or EC50 that approximates it; bounds were set here for any values at or beyond the usual limits of such assays
condition label: source organism: Orthohantavirus andesense
readout: Kd

Q: What Kd value was documented for this sequence, YLIPSVTSL ?
Result: ≥ 20 µM

====

tested on: HLA-B*58:01
experiment description: IEDB peptide-MHC binding, purified MHC/direct/fluorescence; filed as Kd, often an IC50 or EC50 that approximates it; bounds were set here for any values at or beyond the usual limits of such assays
condition label: source organism: SARS-CoV1
readout: pKd
Scale: pKd equals -log10([C]), with [C] in mol/L.

Q: Could you share which pKd value was measured for SSLPSYAAY ?
Result: 6.54

====

tested on: HLA-B*15:01
experiment description: IEDB peptide-MHC binding, purified MHC/direct/fluorescence; filed as Kd, often an IC50 or EC50 that approximates it; bounds were set here for any values at or beyond the usual limits of such assays
condition label: source organism: Influenza A virus (A/Hong Kong/514/97(H5N1))
readout: Kd (µM)
Respond numerically; units are µM and should not be typed.

Q: Quick check: Kd of VSDGGPNLY ?
Result: 2.99

====

tested on: HLA-A*26:01
experiment description: IEDB peptide-MHC binding, purified MHC/direct/fluorescence; filed as Kd, often an IC50 or EC50 that approximates it; bounds were set here for any values at or beyond the usual limits of such assays
condition label: source organism: Entamoeba histolytica HM-1:IMSS
pKd: −log10 of the molar value.
readout: pKd

Q: Which pKd is listed for VKINIFPLY ?
Result: ≤ 4.70

====

tested on: HLA-B*53:01
experiment description: IEDB peptide-MHC binding, purified MHC/competitive/radioactivity; filed as Kd, often an IC50 or EC50 that approximates it; bounds were set here for any values at or beyond the usual limits of such assays
condition label: source organism: Dengue virus 3 Martinique/1243/1999
Quick list: pKd per entry.
pKd is defined as minus the log10 of a concentration measured in mol/L.

// below: answered sequences
residue sequence: LPLFIFSLKD
pKd: 5.53
//
residue sequence: NPQKENDQY
pKd: 5.68
//
residue sequence: MTTEDMLTVW
pKd: 6.91

Shift focus to the following entry.
Q: What measured pKd is associated with YSIPATLLVW on HLA-B*53:01?
Result: 7.22

====

tested on: HLA-A*24:03
experiment description: IEDB peptide-MHC binding, purified MHC/competitive/fluorescence; filed as Kd, often an IC50 or EC50 that approximates it; bounds were set here for any values at or beyond the usual limits of such assays
condition label: source organism: Brucella canis ATCC 23365
pKd: −log10 of the molar value.
readout: pKd

Q: Provide the documented pKd with HLA-A*24:03 as the system for ETVWPFFYA
Result: ≤ 5.30
